Test system: MDA-N
experimentDescription: NCI tumour cell line growth inhibition, 48 h
Calls of active or inactive are those of the source. No stated cut-off is given here; in the data, active = GI50 up to about 1.1 µM and inactive = higher.
Respond only with the outcome that fits, drawn from 1 = active, 0 = inactive

{"compound": "C=CCn1c(-c2ccccc2)cs/c1=N\\C(P(=O)(O)O)P(=O)(O)O", "group": 0}
{"compound": "Fc1cc(-c2cc(-c3ccccc3)no2)c(Cl)cc1Cl", "group": 0}

Outcome logged for COC(=O)/C(=C(\C)NC(C)=O)c1c(C(=O)OC)[nH]c2ccccc12 in this assay: 0

Outcome logged for Cc1cn(C2CC(O)C(Cn3nncc3Cn3cnc4c(N)ncnc43)O2)c(=O)[nH]c1=O (stereo not given) in this assay: 0

Outcome logged for Nc1ncnc2c1ncn2[C@@H]1C[C@H]1CO in this assay: 0

Outcome logged for N=C(N)N/N=C/c1c(-c2ccc(Cl)cc2)nc2n1CCS2 in this assay: 0

Outcome logged for COc1ccc2[nH]c3c(C)c4c(c(C)c3c2c1)CN(C)C=C4 in this assay: 0

Outcome logged for C[C@@H](c1ccccc1)n1c(N)c(-c2ccccn2)c2ccc([N+](=O)[O-])cc2c1=O in this assay: 0

Outcome logged for O=C1CSC(c2ccccc2)N1c1nc2cc3sc(N4C(=O)CSC4c4ccccc4)nc3cc2s1 (stereo not given) in this assay: 0

Outcome logged for [N-]=[N+]=Nc1ccc2c(c1)Sc1ccccc1N2CCCCN1CCN(Cc2ccc(C(=O)c3ccc(CSCC(N)C(=O)O)cc3)cc2)CC1 (stereo not given) in this assay: 0

Outcome logged for COC(=O)C1OC(SCCN)C(O)C(O)C1O (stereo not given) in this assay: 0

Outcome logged for CCOC(=O)C1CCCc2sc(N)c(C#N)c21 (stereo not given) in this assay: 0

Outcome logged for CC(=O)/C(=C/c1ccccc1F)C(=O)c1ccccc1 in this assay: 0

Outcome logged for COc1ccc(OC)c2sc(N3C(=O)/C(=C/Cc4ccco4)N=C3c3ccccc3)nc12 in this assay: 0

Outcome logged for CC(NC(CC12CC3CC(CC(C3)C1)C2)C(N)=O)c1ccccc1 (stereo not given) in this assay: 0

Outcome logged for CNC1C(OC2C(OC3C(O)C(O)C(O)C(O)C3O)OC(C)C2(O)CO)OC(CO)C(O)C1O.N=C(N)N.NC(=O)O (stereo not given) in this assay: 0

Outcome logged for COc1cc(CNC(=O)CCCCCCCC/C=C/Br)ccc1O in this assay: 0

Outcome logged for CN1CCN(C(=S)N(C(=O)c2ccco2)C2CCCCC2)CC1 in this assay: 0

Outcome logged for O=[N+]([O-])c1ccc2c(c1)=[N+]([O-])C1(CCCCC1)[N+]=2[O-] in this assay: 0

Outcome logged for CC1=NN(C(=O)CC(=O)Nc2ccc(Cl)cc2)C(=O)C1/N=N\c1ccc(S(=O)(=O)c2ccc(/N=N/C3C(=O)N(C(=O)CC(=O)Nc4ccc(Cl)cc4)N=C3C)cc2)cc1 (stereo not given) in this assay: 0
